Could you please report measured IC50 for the items listed next?
Molecular target: TNKS2 (Homo sapiens, UniProt Q9H2K2)
Sequence (Q9H2K2 whole entry): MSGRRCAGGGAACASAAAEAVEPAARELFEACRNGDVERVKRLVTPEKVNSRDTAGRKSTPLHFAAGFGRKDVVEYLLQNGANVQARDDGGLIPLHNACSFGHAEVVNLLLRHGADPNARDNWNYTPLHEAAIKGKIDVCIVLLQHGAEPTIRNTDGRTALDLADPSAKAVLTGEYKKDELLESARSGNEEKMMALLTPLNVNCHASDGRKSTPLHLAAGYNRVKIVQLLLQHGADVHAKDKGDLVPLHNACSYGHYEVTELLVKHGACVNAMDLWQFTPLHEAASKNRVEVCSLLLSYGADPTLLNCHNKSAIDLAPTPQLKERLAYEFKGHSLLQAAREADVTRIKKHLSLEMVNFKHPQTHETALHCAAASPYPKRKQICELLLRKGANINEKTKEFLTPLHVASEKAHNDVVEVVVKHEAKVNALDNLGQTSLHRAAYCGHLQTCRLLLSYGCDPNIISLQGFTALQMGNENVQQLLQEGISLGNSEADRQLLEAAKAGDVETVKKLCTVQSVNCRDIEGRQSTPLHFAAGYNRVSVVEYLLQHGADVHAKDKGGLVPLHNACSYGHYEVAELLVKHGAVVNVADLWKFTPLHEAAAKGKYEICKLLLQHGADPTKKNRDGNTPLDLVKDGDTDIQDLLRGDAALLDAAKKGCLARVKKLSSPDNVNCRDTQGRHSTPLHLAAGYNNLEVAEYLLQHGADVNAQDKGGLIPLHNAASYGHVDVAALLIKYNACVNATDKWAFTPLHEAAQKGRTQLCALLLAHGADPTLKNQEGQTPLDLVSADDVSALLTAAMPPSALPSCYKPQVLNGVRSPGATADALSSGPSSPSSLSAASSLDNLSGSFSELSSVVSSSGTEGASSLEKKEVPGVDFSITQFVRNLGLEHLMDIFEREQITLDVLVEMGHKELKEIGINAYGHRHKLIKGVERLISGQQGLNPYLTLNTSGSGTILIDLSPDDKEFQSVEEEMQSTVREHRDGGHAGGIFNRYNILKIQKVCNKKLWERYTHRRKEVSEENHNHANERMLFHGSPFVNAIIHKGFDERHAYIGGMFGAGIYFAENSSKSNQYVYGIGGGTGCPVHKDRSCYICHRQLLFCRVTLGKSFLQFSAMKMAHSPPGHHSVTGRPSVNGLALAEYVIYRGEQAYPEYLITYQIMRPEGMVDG
Test: Modified TNKS2 Assay 2 (auto-parsylation, [3H]-NAD+ SPA)
Assay type: biochemical
Conditions: 6 nM TNKS2, 96 well
Numbers only here, please. The scale is nM.

Task: What value of IC50 has been reported for the following compound? COc1cc(NC(=O)c2[nH]cnc2C(=O)NCCN2CCCCC2)ccc1NC(=O)c1ccc(F)cc1Cl
Output: 5

Task: Data request, read-out IC50, for CNC(=O)c1nc[nH]c1C(=O)Nc1ccc(NC(=O)c2cc(F)ccc2Cl)cc1
Output: 100

Task: Give its IC50 value. Item: O=C(Nc1ccc(NC(=O)c2ocnc2C(=O)NCCN2CCC(F)(F)CC2)cc1)c1ccc(F)cc1Cl
Output: 110

Task: Quick one: IC50 of CC1CCN(CCNC(=O)c2[nH]cnc2C(=O)Nc2ccc(NC(=O)c3ccc(F)cc3)cc2)CC1 ?
Output: 60

====

Biological target: TNKS1 (Homo sapiens)
Test: Modified TNKS1 Assay 3 (BPS kit #80573, biotin-NAD+, 96 well)
Type: biochemical
Settings: human TNKS1, BPS kit #80573, 96 well
Record form. Attribute: pIC50. Fill in for each entry.
pIC50 here: minus log base 10 of the concentration, concentration in moles per litre.

Task: // map O=C(Nc1ccc(NC(=O)c2nc[nH]c2C(=O)NCCN2CCC(F)(F)CC2)cc1)c1ccc(F)cc1Cl to recorded pIC50 (system: TNKS1 (Homo sapiens))
Output: 6.59

Task: What measured pIC50 is associated with O=C(Nc1ccc(NC(=O)c2[nH]cnc2C(=O)NCCN2CCCCC2)cc1)c1ccc(F)cc1Cl [Example 32] on TNKS1 (Homo sapiens)?
Output: 8.10

Task: Observed pIC50 on TNKS1 (Homo sapiens) for CNC(=O)c1[nH]c(C)nc1C(=O)Nc1ccc(NC(=O)c2ccc(F)cc2Cl)cc1 , please.
Output: 6.80

Task: # query: pIC50 | item O=C(Nc1ccc(NC(=O)c2nc[nH]c2C(=O)NCCCN2CCCC2)cc1)c1ccc(F)cc1Cl | system: TNKS1 (Homo sapiens)
Output: 8.00

Task: Notebook entry, TNKS1 (Homo sapiens) assay: pIC50 of CN1CCC(CNC(=O)c2nc[nH]c2C(=O)Nc2ccc(NC(=O)c3ccc(F)cc3Cl)cc2)C1 (stereo not shown) = ?
Output: 8.00

Task: // lookup pIC50 | system=TNKS1 (Homo sapiens) | key= CC1CCN(CCNC(=O)c2nc[nH]c2C(=O)Nc2ccc(NC(=O)c3ccc(F)cc3Cl)cc2)CC1
Output: 8.70

Task: Test system TNKS1 (Homo sapiens); read-out pIC50; what value for O=C(Nc1ccc(NC(=O)c2nc[nH]c2C(=O)NC2CCOC2)cc1)c1ccc(F)cc1Cl (stereo not shown) ?
Output: 6.37

Task: Param readout = pIC50; param system = TNKS1 (Homo sapiens); param query = CC(C)NCCNC(=O)c1[nH]cnc1C(=O)Nc1ccc(NC(=O)c2ccc(F)cc2Cl)cc1 ; response: value
Output: 7.52

Task: Requested read-out pIC50, target or system TNKS1 (Homo sapiens), entry CN1CCC(NC(=O)c2nc[nH]c2C(=O)Nc2ccc(NC(=O)c3ccc(F)cc3Cl)cc2)CC1
Output: 7.30

Task: Any idea what pIC50 came out for CNC(=O)c1nc[nH]c1C(=O)Nc1ccc(NC(=O)c2ccc(F)cc2Cl)cc1 on TNKS1 (Homo sapiens)?
Output: 6.59

Task: Lookup: pIC50 / TNKS1 (Homo sapiens) / CCN(CC)CCNC(=O)c1nc[nH]c1C(=O)Nc1ccc(NC(=O)c2ccc(F)cc2Cl)cc1
Output: 7.70

Task: // lookup pIC50 | system=TNKS1 (Homo sapiens) | key= O=C(Nc1ccc(NC(=O)c2nc[nH]c2C(=O)NCCN2CCCC2)cc1)c1ccc(F)cc1Cl
Output: 7.70

Task: Lookup: pIC50 / TNKS1 (Homo sapiens) / O=C(Nc1ccc(NC(=O)c2ocnc2C(=O)NCCN2CCCC(F)C2)cc1)c1ccc(F)cc1Cl (stereo not shown)
Output: 6.59

Task: Form: Entry = CC1CCN(CCCNC(=O)c2nc[nH]c2C(=O)Nc2ccc(NC(=O)c3ccc(F)cc3Cl)cc2)CC1 | System = TNKS1 (Homo sapiens) | pIC50 = ____
Output: 7.70

====

Kindly state IC50 for each of the entries shown.
Biological target: TNKS1 (Homo sapiens, UniProt O95271)
Sequence (O95271 whole entry): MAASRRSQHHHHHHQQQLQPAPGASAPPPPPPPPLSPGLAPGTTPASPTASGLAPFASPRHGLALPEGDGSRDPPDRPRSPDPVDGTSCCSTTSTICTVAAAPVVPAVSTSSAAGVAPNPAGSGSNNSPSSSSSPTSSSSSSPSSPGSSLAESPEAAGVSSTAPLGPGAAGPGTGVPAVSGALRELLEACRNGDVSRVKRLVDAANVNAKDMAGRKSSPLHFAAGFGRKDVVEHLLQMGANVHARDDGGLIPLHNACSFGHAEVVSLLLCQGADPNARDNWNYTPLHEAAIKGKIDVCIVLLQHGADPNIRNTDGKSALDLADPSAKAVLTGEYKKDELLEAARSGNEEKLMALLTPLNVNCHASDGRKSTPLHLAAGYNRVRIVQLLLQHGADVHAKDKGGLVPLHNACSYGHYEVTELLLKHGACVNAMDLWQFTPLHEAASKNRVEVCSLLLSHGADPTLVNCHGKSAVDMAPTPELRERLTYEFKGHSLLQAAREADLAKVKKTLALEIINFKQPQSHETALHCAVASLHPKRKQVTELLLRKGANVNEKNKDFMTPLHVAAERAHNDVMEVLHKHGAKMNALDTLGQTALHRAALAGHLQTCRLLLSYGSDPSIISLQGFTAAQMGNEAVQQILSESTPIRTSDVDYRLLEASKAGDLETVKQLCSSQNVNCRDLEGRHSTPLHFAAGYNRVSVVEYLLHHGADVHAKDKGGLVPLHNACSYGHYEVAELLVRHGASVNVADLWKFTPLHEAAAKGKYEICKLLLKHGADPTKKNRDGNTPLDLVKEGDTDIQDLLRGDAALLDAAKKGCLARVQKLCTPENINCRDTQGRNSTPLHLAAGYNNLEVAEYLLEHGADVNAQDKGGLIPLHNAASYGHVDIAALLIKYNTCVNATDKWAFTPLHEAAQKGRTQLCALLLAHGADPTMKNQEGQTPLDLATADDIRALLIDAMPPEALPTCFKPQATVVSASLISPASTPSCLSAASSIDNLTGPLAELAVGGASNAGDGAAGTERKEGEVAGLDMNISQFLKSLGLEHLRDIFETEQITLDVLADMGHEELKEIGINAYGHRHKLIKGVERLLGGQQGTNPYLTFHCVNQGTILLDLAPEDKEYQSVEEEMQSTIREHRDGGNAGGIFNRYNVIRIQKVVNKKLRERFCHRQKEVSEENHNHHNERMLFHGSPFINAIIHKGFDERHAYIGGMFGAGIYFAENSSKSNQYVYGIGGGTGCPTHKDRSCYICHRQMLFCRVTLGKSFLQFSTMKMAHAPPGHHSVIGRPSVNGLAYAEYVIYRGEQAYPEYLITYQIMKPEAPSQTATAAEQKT
Assay: Modified TNKS1 Assay 3 (BPS kit #80573, biotin-NAD+, 96 well)
Assay type: biochemical
Conditions: human TNKS1, BPS kit #80573, 96 well
Where a name gives a salt, the structure may show the parent alone.
Please respond with the number in nM and leave the unit unwritten.

Task: Requested read-out: IC50. Entry: O=C(Nc1ccc(NC(=O)c2nc[nH]c2C(=O)NCC2CCCN2)cc1)c1ccc(F)cc1Cl (stereo not drawn) [Example 284, hydrochloride salt]
Output: 60

Task: Recorded IC50 of CCN(CC)CCCNC(=O)c1nc[nH]c1C(=O)Nc1ccc(NC(=O)c2ccc(F)cc2Cl)cc1 , please.
Output: 30

Task: Form field: reported IC50 of O=C(Nc1ccc(NC(=O)c2[nH]cnc2C(=O)NCCN2CCCCC2)cc1F)c1ccc(F)cc1Cl
Output: 2

Task: What value of IC50 has been recorded for this entry: O=C(Nc1ccc(NC(=O)c2[nH]cnc2C(=O)NC2CC2)cc1)c1cc(F)c(F)cc1Cl
Output: 230

Task: Name the recorded IC50 for CS(=O)(=O)c1ccc(C(=O)Nc2ccc(NC(=O)c3[nH]cnc3C(=O)NCCN3CCCCC3)cc2)c(Cl)c1 .
Output: 2

====

For each of the compounds below, state its IC50.
Target: TNKS1 (Homo sapiens, UniProt O95271)
Experiment: Modified TNKS1 Assay 3 (BPS kit #80573, biotin-NAD+, 96 well)
Format: biochemical
Settings: human TNKS1, BPS kit #80573, 96 well
Protocol: The potency of the compounds against human TNKS1 according to the invention was assessed using a commercially available biotin/streptavidin binding assay kits from BPS Bioscience, San Diego, USA (Catalog #80573 for TNKS1). The incorporation of a biotin-labeled NAD+ during the […] catalyzed ribosylation of a suitable protein substrate was detected using with a streptavidin-HRP coupled chemi-luminescent readout. The intensity of the readout signal is proportional to the incorporated NAD^+. […]

Task: Sample CN1CC2(C1)CN(C(=O)c1nc[nH]c1C(=O)Nc1ccc(NC(=O)c3cc(F)c(F)cc3Cl)cc1)C2 [Example 50] — what was its IC50?
Output: 0.13 µM

Task: Recorded IC50 for CN(C)C(C)(C)CNC(=O)c1nc[nH]c1C(=O)Nc1ccc(NC(=O)c2ccc(F)cc2Cl)cc1 [Example 412] , please?
Output: 0.03 µM

Task: What measured IC50 goes with CC1CCCCN1CCCNC(=O)c1nc[nH]c1C(=O)Nc1ccc(NC(=O)c2ccc(F)cc2Cl)cc1 (stereo not shown) [Example 386] ?
Output: 0.06 µM

Task: // query IC50 value for entry O=C(Nc1ccc(NC(=O)c2[nH]cnc2C(=O)NCCN2CCCCC2)cn1)c1ccccc1Cl [Example 114]
Output: < 0.0005 µM

====

Target: UniProt O95271
Test: Modified TNKS1 Assay 2 (auto-parsylation, [3H]-NAD+ SPA)
Assay type: biochemical
Settings: 6 nM TNKS1, 96 well
Measure: pIC50
Field pIC50 (float): negative decimal logarithm of the concentration in molar.

Task: // query pIC50 value for entry CN(C)CCNC(=O)c1nc[nH]c1C(=O)Nc1ccc(NC(=O)c2ccc(F)cc2Cl)c(F)c1 [Example 73]
Output: 8.00

Task: // pIC50 lookup, key: COc1cc(NC(=O)c2[nH]cnc2C(=O)NCCN(C)C)ccc1NC(=O)c1ccccc1Cl [Example 100]
Output: 7.30

Task: Which pIC50 is reported for this compound? CNC(=O)c1nc[nH]c1C(=O)Nc1ccc(NC(=O)c2cc(C(F)(F)F)ccc2Cl)cc1 [Example 352]
Output: 6.24

Task: What does the data say about its pIC50? Entry: CNC(=O)c1nc[nH]c1C(=O)Nc1ccc(NC(=O)c2cc(F)c(F)cc2Cl)cc1 [Example 242]
Output: 7.70

====

Biological target: TNKS1 (Homo sapiens)
Assay: Modified TNKS1 Assay 2 (auto-parsylation, [3H]-NAD+ SPA)
Assay type: biochemical
Conditions: 6 nM TNKS1, 96 well
Experimental: The potency of selected compounds according to the invention was assessed applying an modified in vitro inhibition assay. Here, the TNKS1 catalyzed NAD^+-dependent ribosylation of the enzyme itself (auto-parsylation) was detected using [^3H]-NAD^+ as substrate and applying the scintillation proximity assay (SPA) method to detect tritium-labeled, parsylated TNKS1. The intensity of the readout signal is proportional to the incorporated [^3H]-NAD^+. […]
Measure: pIC50
Convention used: pIC50 is expressed as -log10 of the molar concentration.

Task: For CC1(C)CC(NC(=O)c2nc[nH]c2C(=O)Nc2ccc(NC(=O)c3ccc(F)cc3Cl)cc2)CCO1 (stereo not shown) , what is its reported pIC50?
Output: 6.40

Task: If you can, please state the reported pIC50 value of O=C(Nc1ccc(NC(=O)c2nc[nH]c2C(=O)NC(CO)CO)cc1)c1ccccc1Cl .
Output: 5.92

Task: Please look up its pIC50: O=C(Nc1ccc(NC(=O)c2nc[nH]c2C(=O)NCCF)cc1)c1ccc(F)cc1Cl
Output: 7.52

Task: Given the entry CNC(=O)c1nc[nH]c1C(=O)Nc1ccc(NC(=O)c2cc(F)ccc2OC)cc1 , report its measured pIC50.
Output: 5.21
